system: DLD-1; assay: NCI tumour cell line growth inhibition, 48 h
Activity calls are given as the source filed them. Cut-off read from the data, not from the text of the source: active = GI50 up to about 1.1 µM and inactive = higher.
Consider the following compounds and their measured GI50 readings.

CC(C)(C)C1=CC(=C2C(=O)C(=O)c3ccccc3C2=O)C=C(C(C)(C)C)C1=O
36.6 µM (inactive)
O=C(/C=C/c1ccccc1)CC(=O)CCC(=O)Nc1ccc(Cl)cc1
29.2 µM (inactive)
CC(N)Cc1cccc(C(F)(F)F)c1 (stereo unspecified)
> 100 µM (inactive)
Fc1cccc2c1cc1ccc3cccc4ccc2c1c34
> 100 µM (inactive)
CN(C)CCC[N+]1=Nc2cccc3cccc(c23)N1
17.5 µM (inactive)
O=C(NC(=S)Nc1ccccc1)c1ccc([N+](=O)[O-])cc1
47.9 µM (inactive)

Name the recorded GI50 for C/C(=N/NC(N)=S)C(CN(C)C)C(C1=C(O)c2ccccc2OC1)c1ccccc1 (stereo unspecified) . > 100 µM (inactive)
